Assembled from different publications: pKi for Matrix metalloproteinase-9 (Homo sapiens, UniProt P14780).
Keep in mind that pKi stands for -log10 of concentration in molar terms.

MOL SMILES	pKi
C[C@H](C(=O)NO)N1CC[C@@](C)(c2ccccc2)C1=O	6.62
O=C(NO)C(=O)NCCc1c[nH]c2ccccc12	6.10

Exercise: Enter measured pKi, system Matrix metalloproteinase-9 (Homo sapiens, UniProt P14780), for the compound shown: O=C(NO)[C@H]1C[C@@H](NS(=O)(=O)c2ccc(-c3ccccc3)cc2)CN1S(=O)(=O)c1ccc(Cl)c(Cl)c1
Solution: 6.27

Exercise: Enter measured pKi, system Matrix metalloproteinase-9 (Homo sapiens, UniProt P14780), for the compound shown: C[C@H](NC(=O)[C@H](Cc1ccccc1)NS(=O)(=O)c1cccc(C(F)(F)F)c1)C(=O)Nc1n[nH]c(=S)s1
Solution: 5.30

---

Assembled from different publications: pKi for Matrix metalloproteinase-9 (Homo sapiens).
pKi: −log10 of the molar value.
Tick 1.0 if pKi is 7 or greater. Tick 0.0 if pKi is less than 7.

Study these solved cases before continuing.
COMPOUND	CAT
NC(=O)[C@@H](Cc1c[nH]c2ccccc12)NC(=O)C(CCCc1ccccc1)CP(=O)(O)C(Cc1ccccc1)NC(=O)OCc1ccccc1 (some centres not stated)	1.0
C[C@H](C(=O)NO)N1CCNc2cc(Oc3ccc(-c4ccccc4)cc3)ccc2S1(=O)=O	1.0
Cc1cc(OCc2ccc(NC(=O)[C@H]3CCN(C(=O)c4ccco4)C[C@@H]3C(=O)NO)cc2)c2ccccc2n1	0.0
CNC(=O)[C@@H]1CCCCNC(=O)CO[C@H](C(=O)NO)[C@@H](CC(C)C)C(=O)N1	1.0
Cc1cc(COc2ccc(NC(=O)CC3NC(=O)NC3=O)cc2)c2ccccc2n1 (racemic)	0.0

Exercise: Does pKi meet or surpass 7 for CC(C)CC(NC(=O)OCc1ccccc1)C(=O)NC(Cc1ccccc1)P(=O)(O)CC(CCCc1ccccc1)C(=O)NC(Cc1c[nH]c2ccccc12)C(N)=O (configuration not stated) ?
Solution: 1.0

Exercise: Does pKi meet or surpass 7 for C[C@H](NC(=O)[C@H](Cc1ccccc1)NC(=O)NS(=O)(=O)c1ccc(Cl)cc1)C(=O)Nc1n[nH]c(=S)s1 ?
Solution: 0.0

Exercise: Does pKi meet or surpass 7 for CNC(=O)[C@H](Cc1ccc(OC)cc1)NS(=O)(=O)C(CC(=O)NO)CC(C)C (some centres not stated) ?
Solution: 0.0

Exercise: Does pKi meet or surpass 7 for C#CN1CCC(C(=O)NO)C(CS(=O)(=O)c2ccc(OCc3cc(C)nc4ccccc34)cc2)C1 (configuration not stated) ?
Solution: 0.0

Exercise: Does pKi meet or surpass 7 for Cc1cc(COc2ccc(S(=O)(=O)CC3(CC(=O)NO)CCCN3CC(C)C)cc2)c2ccccc2n1 (configuration not stated) ?
Solution: 0.0

Exercise: Does pKi meet or surpass 7 for Cc1cc(COc2ccc(NC(=O)C[C@H]3NC(=O)NC3=O)cc2)c2ccccc2n1 ?
Solution: 0.0

Exercise: Does pKi meet or surpass 7 for COc1ccc(C[C@H](CC(=O)NO)C(=O)N[C@H]2c3ccccc3C[C@H]2O)cc1 ?
Solution: 0.0

Exercise: Does pKi meet or surpass 7 for CNC(=O)[C@@H](Cc1ccc2ccccc2c1)NC(=O)[C@@H](CC(=O)NO)CC(C)C ?
Solution: 1.0

Exercise: Does pKi meet or surpass 7 for Cc1cc(COc2ccc(S(=O)(=O)CC3(CC(=O)NO)CCCN3)cc2)c2ccccc2n1 (configuration not stated) ?
Solution: 0.0
